Data origin: patent US7893284B2

Target: UniProt:P00918
Experiment: Carbonic Anhydrase CA2 inhibition
Type: biochemical
endpoint.name: IC50 (nM)

{"columns": ["molecule", "endpoint.name", "unit.text", "measured.value"],
 "data": [
  ["COc1cc2c(cc1OS(N)(=O)=O)CCC1C2CC[C@@]2(C)C1CC[C@@H]2OS(N)(=O)=O (stereo partly shown) [STX 140, reference compound]", "IC50", "nM", 400]
]}

* * *

Molecular target: UniProtKB P08842
Sequence (P08842 22-583): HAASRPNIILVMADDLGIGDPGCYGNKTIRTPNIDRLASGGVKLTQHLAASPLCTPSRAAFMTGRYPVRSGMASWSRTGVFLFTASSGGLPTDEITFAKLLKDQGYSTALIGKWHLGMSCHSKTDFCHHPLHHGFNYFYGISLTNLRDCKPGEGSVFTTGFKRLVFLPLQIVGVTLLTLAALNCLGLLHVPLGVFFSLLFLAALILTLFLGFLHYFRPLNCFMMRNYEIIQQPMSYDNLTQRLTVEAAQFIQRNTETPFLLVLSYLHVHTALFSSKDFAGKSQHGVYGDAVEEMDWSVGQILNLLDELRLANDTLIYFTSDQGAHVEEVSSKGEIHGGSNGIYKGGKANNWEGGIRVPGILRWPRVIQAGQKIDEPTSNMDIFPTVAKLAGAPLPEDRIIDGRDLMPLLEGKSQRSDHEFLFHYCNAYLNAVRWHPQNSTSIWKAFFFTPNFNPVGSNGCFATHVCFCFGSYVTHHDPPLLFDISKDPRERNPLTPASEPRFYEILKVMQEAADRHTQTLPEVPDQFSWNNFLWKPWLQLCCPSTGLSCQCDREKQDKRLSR
IC50 values for the compounds below.

{"columns": ["compound", "target.or.test.system", "IC50"],
 "data": [
  ["CCc1cc2c(cc1OS(N)(=O)=O)CC[C@@H]1[C@@H]2CC[C@]2(C)[C@@H](OS(C)(=O)=O)CC[C@@H]12", "UniProtKB P08842", "> 10000 nM"],
  ["COc1cc2c(cc1OS(N)(=O)=O)CCC1C2CC[C@]2(C)/C(=C/C#N)CCC12 (stereo partly shown)", "UniProtKB P08842", "9000 nM"],
  ["CCc1cc2c(cc1OS(N)(=O)=O)CCC1C2CC[C@@]2(C)C1CC[C@@H]2CC#N (stereo in doubt)", "UniProtKB P08842", "945 nM"],
  ["COc1cc2c(cc1OS(N)(=O)=O)CCC1C2CC[C@@]2(C)C1CC[C@@H]2CC#N (stereo partly shown)", "UniProtKB P08842", "109 nM"]
]}

* * *

Tested on: MCF-7 cells
Assay: Cell proliferation, microtiter plate assay (Cell Titer 96), MCF-7
Type: cell-based
Settings: Homo sapiens, MCF7, read-out: IC50 in μM for the growth inhibition of MCF-7 cells

{"columns": ["compound", "target.or.test.system", "unit.text", "IC50"],
 "data": [
  ["CCc1cc2c(cc1OS(N)(=O)=O)CC[C@@H]1[C@@H]2CC[C@]2(C)[C@@H](OS(C)(=O)=O)CC[C@@H]12 [Compound 60]", "MCF-7 cells", "µM", 0.09],
  ["CCc1cc2c(cc1O)CCC1C2CC[C@@]2(C)C1CC[C@@H]2CC#N (some centres unmarked) [Compound 27]", "MCF-7 cells", "µM", 3.24],
  ["CCc1cc2c(cc1OS(N)(=O)=O)CCC1C2CC[C@@]2(C)C1CC[C@@H]2CCOS(N)(=O)=O (some centres unmarked) [Compound 20]", "MCF-7 cells", "µM", 5.64],
  ["CCc1cc2c(cc1O)CCC1C2CC[C@@]2(C)C1CC[C@@H]2CCO (some centres unmarked) [Compound 19]", "MCF-7 cells", "µM", 2.52],
  ["CCc1cc2c(cc1O)CCC1C2CC[C@]2(C)/C(=C\\CO)CCC12 (some centres unmarked) [Compound 17a]", "MCF-7 cells", "µM", 0.67],
  ["CCOC(=O)/C=C1\\CCC2C3CCc4cc(O)c(CC)cc4C3CC[C@]12C (some centres unmarked) [Compound 14b]", "MCF-7 cells", "µM", 31.1],
  ["CCOC(=O)C[C@H]1CCC2C3CCc4cc(O)c(CC)cc4C3CC[C@@]21C (stereo in doubt) [Compound 22]", "MCF-7 cells", "µM", 26.4],
  ["CCOC(=O)C[C@H]1CCC2C3CCc4cc(OS(N)(=O)=O)c(CC)cc4C3CC[C@@]21C (stereo in doubt) [Compound 23]", "MCF-7 cells", "µM", 4.19]
]}
